Test system: Escherichia coli TOP10
Test: shrunken log2 fold change of peptide-encoding DNA abundance (4.5 h post-induction vs induction); higher = less antimicrobial activity (less host growth inhibition)
Conditions: time post-induction: 4.5 h; library: site-saturation at positions 5, 18, 19, 20
Classification by shrunken log2 fold change follows these ranges: low interval: < -0.1; middle interval: ≥ -0.1 and < 0.09; high interval: ≥ 0.09

A selection of reference data follows.
Q: Field: class (shrunken log2 fold change) — entry: RRIRPRPPRLPRPRPRPPDRPRP
Result: high interval

Q: Field: class (shrunken log2 fold change) — entry: RRIRKRPPRLPRPRPRPKQVPRP
Result: low interval

Continuing:
Q: Field: class (shrunken log2 fold change) — entry: RRIRSRPPRLPRPRPRPYLDPRP
Result: low interval

Q: Field: class (shrunken log2 fold change) — entry: RRIRLRPPRLPRPRPRPLPYPRP
Result: high interval

Q: Field: class (shrunken log2 fold change) — entry: RRIRVRPPRLPRPRPRPLMCPRP
Result: low interval

###

Tested on: Escherichia coli TOP10;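 further: peptides expressed intracellularly from a pBAD plasmid library in pooled LB shake-flask culture, induced with 0.3% L-arabinose, DNA abundance read by NGS, three biological replicates, DESeq2 with apeglm shrinkage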
Assay: shrunken log2 fold change of peptide-encoding DNA abundance (4.5 h post-induction vs induction); higher = less antimicrobial activity (less host growth inhibition)
Conditions: time post-induction: 4.5 h; library: site-saturation at positions 5, 18, 19, 20
test.readout: shrunken log2 fold change
Please give only the number in your answer, with no unit.

Q: Output reported shrunken log2 fold change of the sequence RRIRSRPPRLPRPRPRPLPYPRP on Escherichia coli TOP10.
Result: -0.25

Continuing:
Q: Output reported shrunken log2 fold change of the sequence RRIRPRPPRLPRPRPRPQLSPRP on Escherichia coli TOP10.
Result: -0.485

Q: Output reported shrunken log2 fold change of the sequence RRIRQRPPRLPRPRPRPPVCPRP on Escherichia coli TOP10.
Result: -0.0828

Q: Output reported shrunken log2 fold change of the sequence RRIRMRPPRLPRPRPRPHGEPRP on Escherichia coli TOP10.
Result: 0.365

Q: Output reported shrunken log2 fold change of the sequence RRIRWRPPRLPRPRPRPTRGPRP on Escherichia coli TOP10.
Result: 0.329

Q: Output reported shrunken log2 fold change of the sequence RRIRHRPPRLPRPRPRPHDMPRP on Escherichia coli TOP10.
Result: -0.291

Q: Output reported shrunken log2 fold change of the sequence RRIRVRPPRLPRPRPRPVAFPRP on Escherichia coli TOP10.
Result: -0.0455

Q: Output reported shrunken log2 fold change of the sequence RRIRGRPPRLPRPRPRPKMMPRP on Escherichia coli TOP10.
Result: 0.345

Q: Output reported shrunken log2 fold change of the sequence RRIRLRPPRLPRPRPRPTSAPRP on Escherichia coli TOP10.
Result: 0.659

Q: Output reported shrunken log2 fold change of the sequence RRIRGRPPRLPRPRPRPEEQPRP on Escherichia coli TOP10.
Result: -0.00213

Q: Output reported shrunken log2 fold change of the sequence RRIRWRPPRLPRPRPRPIKRPRP on Escherichia coli TOP10.
Result: 0.21

Q: Output reported shrunken log2 fold change of the sequence RRIRCRPPRLPRPRPRPKQGPRP on Escherichia coli TOP10.
Result: 0.261

Q: Output reported shrunken log2 fold change of the sequence RRIRPRPPRLPRPRPRPNCKPRP on Escherichia coli TOP10.
Result: -0.048

Q: Output reported shrunken log2 fold change of the sequence RRIRKRPPRLPRPRPRPGGCPRP on Escherichia coli TOP10.
Result: 0.809

Q: Output reported shrunken log2 fold change of the sequence RRIRHRPPRLPRPRPRPHYCPRP on Escherichia coli TOP10.
Result: -0.0453

Q: Output reported shrunken log2 fold change of the sequence RRIRSRPPRLPRPRPRPYANPRP on Escherichia coli TOP10.
Result: -0.185

Q: Output reported shrunken log2 fold change of the sequence RRIRARPPRLPRPRPRPRKGPRP on Escherichia coli TOP10.
Result: 0.365
